TARGET_UNDER_TEST: T1, rhNav1.7α + β1-β2-β3 (rhesus monkey)
T1 construct: also called rhNav1.7-beta1-beta2-beta3; rhNav1.7-β1-β2-β3
MEASUREMENT_NOTES: binding FACS, CHO FlpIn
ASSAY_READOUT: Bmax
// return the numeric value with its unit appended

Would you please look over these solved cases?
F010302358 (VHH) VHH: EVQLVESGGGVVQPGGSLRLSCAASSRQFIRDVFTGWYRQAPGKQRELVARIYNEGNTQYADSVKGRFTISRDNAKKTVYLQMNSLRPEDTALYYCLFSGTISTGREYRSGDYWGQGTLVTVSS = 37%
F010302344 (VHH) VHH: EVQLVESGGGVVQPGGSLRLSCAASHRQFIRDVFTGWYRQAPGKQRELVARIYNEGNTQYADSAKGRFTISRDNAKKTVYLQMNSLRPEDTALYYCLFSGTISTGREYRSGDYWGQGTLVTVSS = 78%
F010302335 (VHH) VHH: EVQLVESGGGVVQPGGSLRLSCAASSRQFIRDVFTGWYRRAPGKQRELVARIYESGNTQYADSAKGRFTISRDNAKKTVYLQMNSLRPEDTALYYCLFSGTISTGREYRSGDYWGQGTLVTVSS = 84%

Data request: Provide measured Bmax value, entry: F010302363 (VHH) VHH: EVQLVESGGGVVQPGGSLRLSCAASHRAFIRDVFTGWYRQAPGKQRELVARIYEGGNTQYADSVKGRFTISRDNAKKTVYLQMNSLRPEDTALYYCLFSGTISTGREYRSGDYWGQGTLVTVSS
Data returned: 96%

Sourced from patent US20240002497A1
